Each recorded value in this set is attributed to patent US20170008888A1.

Entries and their EC50 values follow.
- Tested on: cynomolgus monkey PBMCs
- method summary: Cytokine response by primary cynomolgus monkey PBMCs stimulated with LPS
- Type: cell-based, cynomolgus monkey (M. fascicularis)
- stated conditions: Macaca fascicularis, PBMC; 100 ng/ml LPS 20 h; read-out: EC50 (μM) under LPS stimulation, MIP-1β

- compound: "CCOc1cc(C(=O)N2CCCN(C)CC2)ccc1Nc1cc2c(cn1)N(C)C(=O)c1ccccc1N2C [Compound 8]"
  uom: "µM"
  EC50: 4.45
- compound: "CCOc1cc(C(=O)N2CCC(N3CCCC3)CC2)ccc1Nc1cc2c(cn1)N(C)C(=O)c1ccccc1N2C [Compound 46]"
  uom: "µM"
  EC50: 2.2

###

- Tested on: primary asthmatic human bronchial epithelial cells
- method summary: IL-17A- or IL-17F-mediated cytokine response by primary asthmatic human bronchial epithelial cells
- Assay type: cell-based
- stated conditions: Epithelial cell, 48 h, +50 ng/ml IL-17F, 48 h, read-out: EC50 values (μM), IFN-γ
Catalogue of EC50 readings, one per entry.

- line notation: "CCOc1cc(C(=O)N2CCC(N3CCN(C)CC3)CC2)ccc1Nc1cc2c(cn1)N(C)C(=O)c1occc1N2C"
  EC50: "1.98 µM"
- line notation: "CCOc1cc(C(=O)N2CC[C@@H](N(C)C)C2)ccc1Nc1cc2c(cn1)N(C)C(=O)c1ccccc1N2C"
  EC50: "0.34 µM"
- line notation: "CCOc1cc(C(=O)N2CCC(N3CCN(C)CC3)CC2)ccc1Nc1cc2c(cn1)N(C)C(=O)c1ccccc1N2C"
  EC50: "0.6 µM"

###

The following molecules are listed with their measured EC50 values.
- Tested on: primary asthmatic human bronchial epithelial cells
- method summary: IL-17A- or IL-17F-mediated cytokine response by primary asthmatic human bronchial epithelial cells
- Type: cell-based
- stated conditions: Epithelial cell, 48 h, +50 ng/ml IL-17A, 48 h, read-out: EC50 values (μM), G-CSF
quantity name: EC50 (µM)

- line notation: "CCOc1cc(C(=O)N2CC[C@@H](N(C)C)C2)ccc1Nc1cc2c(cn1)N(C)C(=O)c1ccccc1N2C"
  test target: "primary asthmatic human bronchial epithelial cells"
  quantity name: "EC50"
  uom: "µM"
  recorded value: 0.66
- line notation: "CCOc1cc(C(=O)N2CCC(N3CCN(C)CC3)CC2)ccc1Nc1cc2c(cn1)N(C)C(=O)c1occc1N2C"
  test target: "primary asthmatic human bronchial epithelial cells"
  quantity name: "EC50"
  uom: "µM"
  recorded value: 2.68
- line notation: "CCOc1cc(C(=O)N2CCC(N3CCN(C)CC3)CC2)ccc1Nc1cc2c(cn1)N(C)C(=O)c1ccccc1N2C"
  test target: "primary asthmatic human bronchial epithelial cells"
  quantity name: "EC50"
  uom: "µM"
  recorded value: 1.66

###

- test target: BRD4 bromodomain domain I [BRD4(1)] (Homo sapiens)
- Construct: BRD4 bromodomain domain I [BRD4(1)]; purchased Cayman Chemicals
- method summary: BRD4 bromodomain domain 1 inhibition assay (TR-FRET)
- Format: binding
- stated conditions: screening concentration 10 μM
quantity name: inhibition at 10 µM

- compound: "CC(C)Oc1cc(C(=O)N2CCC[C@H](O)C2)ccc1Nc1cc2c(cn1)N(C)C(=O)c1ccccc1N2C [Compound T48]"
  recorded value: "70 to 85%"
- compound: "CCOc1cc(C(=O)N2CCC(N3CCCN(C)CC3)CC2)ccc1Nc1cc2c(cn1)N(C)C(=O)c1ccccc1N2C [Compound T31]"
  recorded value: "> 85%"
- compound: "CCOc1cc(C(=O)N(C)CCN2CCCC2)ccc1Nc1cc2c(cn1)N(C)C(=O)c1ccccc1N2C [Compound 28]"
  recorded value: "> 85%"
- compound: "CCOc1cc(C(=O)N2CC[C@@H](NCCF)C2)ccc1Nc1cc2c(cn1)N(C)C(=O)c1ccccc1N2C [Compound T9]"
  recorded value: "70 to 85%"
- compound: "CN1C(=O)c2ccccc2N(C)c2cc(N[C@H]3CC[C@H](NC4=NCCO4)CC3)ncc21 [Compound 45]"
  recorded value: "< 70%"
- compound: "CCOc1cc(C(=O)NCCOC)ccc1Nc1cc2c(cn1)N(C)C(=O)c1ccccc1N2C [Compound 83]"
  recorded value: "< 70%"
- compound: "CCOc1cc(C(=O)NCCN(C(C)C)C(C)C)ccc1Nc1cc2c(cn1)N(C)C(=O)c1ccccc1N2C [Compound 55]"
  recorded value: "70 to 85%"
- compound: "CCOc1cc(C(=O)N2CCC(N3CCN(C)CC3)CC2)ccc1Nc1cc2c(cn1)N(C)C(=O)c1occc1N2C [Compound 65]"
  recorded value: "> 85%"
- compound: "CCOc1cc(C(=O)N2CCOCC2)ccc1Nc1cc2c(cn1)N(C)C(=O)c1ccccc1N2C [Compound 111]"
  recorded value: "> 85%"
- compound: "CN1CCC(c2ccc(Nc3cc4c(cn3)N(C)C(=O)c3ccccc3N4C)cc2)CC1 [Compound 92]"
  recorded value: "70 to 85%"
- compound: "CN1CCC(N2CCN(C(=O)c3ccc(Nc4cc5c(cn4)N(C)C(=O)c4ccccc4N5C)c(OC(F)F)c3)CC2)CC1 [Compound T76]"
  recorded value: "70 to 85%"
- compound: "CCOc1cc(C(=O)NCCN(C)C)ccc1Nc1cc2c(cn1)N(C)C(=O)c1ccccc1N2C [Compound 1]"
  recorded value: "70 to 85%"
- compound: "CCOc1cc(C(=O)NCCN2CCN(C)CC2)ccc1Nc1cc2c(cn1)N(C)C(=O)c1ccccc1N2C [Compound 44]"
  recorded value: "70 to 85%"
- compound: "CCOc1cc(C(=O)NCCOCCO)ccc1Nc1cc2c(cn1)N(C)C(=O)c1ccccc1N2C [Compound 101]"
  recorded value: "70 to 85%"
- compound: "CCOc1cc(C(=O)N2CCNCC2)ccc1Nc1cc2c(cn1)N(C)C(=O)c1ccccc1N2C [Compound 62]"
  recorded value: "70 to 85%"
